# Ratio annotations
# protocol.notes: Ratio of oxytocic potency in rat uterus to vasopressor activity in phenoxybenzamine-treated rat under urethane anesthesia
Positions of bridges follow the written chain, without caps; N, C: chain ends. Non-standard residues stand in square brackets, D forms with d. Residues, ends and D or L forms follow the SMILES beside them. hSer = N[C@@H](CCO)C(=O)O
quantity.kind: Ratio

compound	quantity.kind	result
CC[C@H](C)[C@@H]1NC(=O)[C@H](Cc2ccc(O)cc2)NC(=O)[C@@H](N)CSSC[C@@H](C(=O)N2CCC[C@H]2C(=O)N[C@@H](CC(C)C)C(=O)NCC(N)=O)NC(=O)[C@H](CC(N)=O)NC(=O)[C@H](CO)NC1=O (H-CYISNCPLG-NH2; disulfide 1-6)	Ratio	>1950
CC[C@H](C)[C@@H]1NC(=O)[C@H](Cc2ccc(O)cc2)NC(=O)[C@@H](N)CSSC[C@@H](C(=O)N2CCC[C@H]2C(=O)N[C@@H](CC(C)C)C(=O)NCC(N)=O)NC(=O)[C@H](CC(N)=O)NC(=O)[C@H](CC(N)=O)NC1=O (H-CYINNCPLG-NH2; disulfide 1-6)	Ratio	823
CC[C@H](C)[C@@H]1NC(=O)[C@H](Cc2ccc(O)cc2)NC(=O)[C@@H](N)CSSC[C@@H](C(=O)N2CCC[C@H]2C(=O)N[C@@H](CC(C)C)C(=O)NCC(N)=O)NC(=O)[C@H](CC(N)=O)NC(=O)[C@H]([C@@H](C)O)NC1=O (H-CYITNCPLG-NH2; disulfide 1-6)	Ratio	2150
CC[C@H](C)[C@@H]1NC(=O)[C@H](Cc2ccc(O)cc2)NC(=O)[C@@H](N)CSSC[C@@H](C(=O)N2CCC[C@H]2C(=O)N[C@@H](CC(C)C)C(=O)NCC(N)=O)NC(=O)[C@H](CC(N)=O)NC(=O)[C@H](CCO)NC1=O (H-CYI[hSer]NCPLG-NH2; disulfide 1-6)	Ratio	5950

* * *

# Test system: Rattus norvegicus
# protocol.notes: Antidiuretic activity in iv dosed hydrated rat anesthetized with ethanol
# Assay type: ADME, organism-based, Urine
# stated.conditions: in vivo
Positions of bridges follow the written chain, without caps; N, C: chain ends. Non-standard residues stand in square brackets, D forms with d. Residues, ends and D or L forms follow the SMILES beside them. hSer = N[C@@H](CCO)C(=O)O

compound	experimental.target	Activity [U/mg]
CC[C@H](C)[C@@H]1NC(=O)[C@H](Cc2ccc(O)cc2)NC(=O)[C@@H](N)CSSC[C@@H](C(=O)N2CCC[C@H]2C(=O)N[C@@H](CC(C)C)C(=O)NCC(N)=O)NC(=O)[C@H](CC(N)=O)NC(=O)[C@H](CCO)NC1=O (H-CYI[hSer]NCPLG-NH2; disulfide 1-6)	Rattus norvegicus	0.24
CC[C@H](C)[C@@H]1NC(=O)[C@H](Cc2ccc(O)cc2)NC(=O)[C@@H](N)CSSC[C@@H](C(=O)N2CCC[C@H]2C(=O)N[C@@H](CC(C)C)C(=O)NCC(N)=O)NC(=O)[C@H](CC(N)=O)NC(=O)[C@H]([C@@H](C)O)NC1=O (H-CYITNCPLG-NH2; disulfide 1-6)	Rattus norvegicus	1.8
CC[C@H](C)[C@@H]1NC(=O)[C@H](Cc2ccc(O)cc2)NC(=O)[C@@H](N)CSSC[C@@H](C(=O)N2CCC[C@H]2C(=O)N[C@@H](CC(C)C)C(=O)NCC(N)=O)NC(=O)[C@H](CC(N)=O)NC(=O)[C@H](CO)NC1=O (H-CYISNCPLG-NH2; disulfide 1-6)	Rattus norvegicus	0.06
CC[C@H](C)[C@@H]1NC(=O)[C@H](Cc2ccc(O)cc2)NC(=O)[C@@H](N)CSSC[C@@H](C(=O)N2CCC[C@H]2C(=O)N[C@@H](CC(C)C)C(=O)NCC(N)=O)NC(=O)[C@H](CC(N)=O)NC(=O)[C@H](CCC(N)=O)NC1=O	Rattus norvegicus	4
CC[C@H](C)[C@@H]1NC(=O)[C@H](Cc2ccc(O)cc2)NC(=O)[C@@H](N)CSSC[C@@H](C(=O)N2CCC[C@H]2C(=O)N[C@@H](CC(C)C)C(=O)NCC(N)=O)NC(=O)[C@H](CC(N)=O)NC(=O)[C@H](CC(N)=O)NC1=O (H-CYINNCPLG-NH2; disulfide 1-6)	Rattus norvegicus	0.044

Origin of measurements: ChEMBL document CHEMBL3271978
